IC50 by entry:
test system: Plasmodium falciparum; assay: Antiplasmodial activity against chloroquine-sensitive Plasmodium falciparum 3D7; type: functional, organism-based

{"compound": "COc1cc2c(c(OC)c1-c1c(C)cc3cccc(OC)c3c1O)[C@@H](C)N(C)[C@@H](C)C2 [ANCISTROTECTORINE]", "measurement-units": "µg/mL", "IC50": 9.1}
{"compound": "COc1cc(OC)c(-c2c(C)cc(OC)c3c(OC)cccc23)c2c1C(C)=N[C@@H](C)C2", "measurement-units": "µg/mL", "IC50": 5.4}
{"compound": "COc1cc(OC)c2c(c1-c1c(C)cc(OC)c3c(OC)cccc13)C[C@H](C)N(C)[C@H]2C [O,N-Dimethylancistrocladine]", "measurement-units": "µg/mL", "IC50": 34.1}
{"compound": "COc1cc2c(c(OC)c1-c1c(C)cc3cccc(OC)c3c1O)C(C)=N[C@@H](C)C2 [ANCISTROCLADIDINE]", "measurement-units": "µg/mL", "IC50": 1.9}
{"compound": "COc1c(-c2c(C)cc3cccc(OC)c3c2O)c(O)cc2c1[C@@H](C)N(C)[C@@H](C)C2 [ANCISTROTANZANINE C]", "measurement-units": "µg/mL", "IC50": 4.2}

---

IC50 by entry:
system: Plasmodium falciparum; assay: Antiplasmodial activity against chloroquine-resistant Plasmodium falciparum K1; type: functional, organism-based

{"compound": "COc1cc(OC)c(-c2c(C)cc(OC)c3c(OC)cccc23)c2c1C(C)=N[C@@H](C)C2", "assayed-target": "Plasmodium falciparum", "IC50 (µg/mL)": 2.2}
{"compound": "COc1cc2c(c(OC)c1-c1c(C)cc3cccc(OC)c3c1O)C(C)=N[C@@H](C)C2 [ANCISTROCLADIDINE]", "assayed-target": "Plasmodium falciparum", "IC50 (µg/mL)": 0.3}
{"compound": "COc1cc(OC)c2c(c1-c1c(C)cc(OC)c3c(OC)cccc13)C[C@H](C)N(C)[C@H]2C [O,N-Dimethylancistrocladine]", "assayed-target": "Plasmodium falciparum", "IC50 (µg/mL)": 3.6}
{"compound": "COc1c(-c2c(C)cc3cccc(OC)c3c2O)c(O)cc2c1[C@@H](C)N(C)[C@@H](C)C2 [ANCISTROTANZANINE C]", "assayed-target": "Plasmodium falciparum", "IC50 (µg/mL)": 0.1}
{"compound": "COc1cc2c(c(OC)c1-c1c(C)cc3cccc(OC)c3c1O)[C@@H](C)N(C)[C@@H](C)C2 [ANCISTROTECTORINE]", "assayed-target": "Plasmodium falciparum", "IC50 (µg/mL)": 0.7}

---

MCC by entry:
assay: Cytotoxicity against rat L6 cells; format: cell-based; settings: read-out: MIC
measurement-label: MCC (µg/mL)

{"molecule": "COc1cc2c(c(OC)c1-c1c(C)cc3cccc(OC)c3c1O)[C@@H](C)N(C)[C@@H](C)C2 [ANCISTROTECTORINE]", "operator": "=", "numeric-value": 19.9}
{"molecule": "COc1c(-c2c(C)cc3cccc(OC)c3c2O)c(O)cc2c1[C@@H](C)N(C)[C@@H](C)C2 [ANCISTROTANZANINE C]", "operator": "=", "numeric-value": 40.7}
{"molecule": "COc1cc(OC)c(-c2c(C)cc(OC)c3c(OC)cccc23)c2c1C(C)=N[C@@H](C)C2", "operator": ">", "numeric-value": 90}
{"molecule": "COc1cc2c(c(OC)c1-c1c(C)cc3cccc(OC)c3c1O)C(C)=N[C@@H](C)C2 [ANCISTROCLADIDINE]", "operator": "=", "numeric-value": 28.3}
{"molecule": "COc1cc(OC)c2c(c1-c1c(C)cc(OC)c3c(OC)cccc13)C[C@H](C)N(C)[C@H]2C [O,N-Dimethylancistrocladine]", "operator": "=", "numeric-value": 42.9}
